System: myeloid leukemia patient primary cells Pat.9
Assay: cell viability (% survival relative to DMSO control); higher = less cytotoxic
Conditions: 1 nM; 72 h
Reported values of cell viability for individual entries

compound: C[C@]12C=CC(=O)C=C1CC[C@@H]1[C@@H]2[C@@H](O)C[C@@]2(C)[C@H]1CC[C@]2(O)C(=O)CO
test system: myeloid leukemia patient primary cells Pat.9
unit descriptor: %
cell viability: 99.2

compound: O=c1cc(N2CCOCC2)oc2c(-c3ccccc3)cccc12
test system: myeloid leukemia patient primary cells Pat.9
unit descriptor: %
cell viability: 63.7

compound: c1cc(-c2cnn3cc(-c4ccc(OCCN5CCCCC5)cc4)cnc23)ccn1
test system: myeloid leukemia patient primary cells Pat.9
unit descriptor: %
cell viability: 41.6

compound: CN(Cc1cnc2nc(N)nc(N)c2n1)c1ccc(C(=O)N[C@@H](CCC(=O)O)C(=O)O)cc1 [Methotrexate]
test system: myeloid leukemia patient primary cells Pat.9
unit descriptor: %
cell viability: 51.4

compound: O=C1C(SCCO)=C(SCCO)C(=O)c2ccccc21
test system: myeloid leukemia patient primary cells Pat.9
unit descriptor: %
cell viability: 1.27

compound: C=CCN(C)CCCCCCOc1ccc(C(=O)c2ccc(Br)cc2)c(F)c1.O=C(O)/C=C/C(=O)O [Ro 48-8071 fumarate]
test system: myeloid leukemia patient primary cells Pat.9
unit descriptor: %
cell viability: 90.4

###

System: MV4-11
Assay: cell viability (% survival relative to DMSO control, bortezomib = 0%); higher = less cytotoxic
Details: 10000 nM; 72 h
result type: cell viability (%)

molecule: O=C(NCCN1CCC(n2c(O)nc3ccccc32)CC1)c1cc2cc(F)ccc2[nH]1 [FIPI]
endpoint value: 53.2
//
molecule: N[C@@H](CC(=O)N1CCn2c(nnc2C(F)(F)F)C1)Cc1cc(F)c(F)cc1F [Sitagliptin]
endpoint value: 101
//
molecule: CC(=O)Nc1nc(C)c(-c2ccc(Cl)c(S(=O)(=O)NCCO)c2)s1 [PIK93]
endpoint value: 0.217
//
molecule: Cc1c2c(=O)n(-c3ccccc3Cl)[nH]c2cc(=O)n1Cc1ccccn1
endpoint value: 59.2
//
molecule: O=C(O)CC[N+](=O)[O-] [3-nitropropionic acid]
endpoint value: 0.752
//
molecule: C=CC(=O)c1ccc(O)cc1 [4-Acryloylphenol]
endpoint value: -1.55
//
molecule: CCn1c(=Cc2cccc[n+]2CC)sc(=C2Sc3ccccc3N2C)c1=O [MKT 077]
endpoint value: 0.22
//
molecule: Cc1[nH]nc(C(F)(F)F)c1Cc1sc2c(c1C(=O)N1C[C@](C)(O)CO1)c(=O)n(C)c(=O)n2C(C)C [AZD3965]
endpoint value: 81.6
//
molecule: O=C(Nc1ccccc1)c1cc([N+](=O)[O-])ccc1Cl [GW9662]
endpoint value: 42.9

###

Tested on: HL-60
Assay: cell viability (% survival relative to DMSO control); higher = less cytotoxic
Details: 0.001 µM; 72 h; co-treatment: pictilisib 100 nM
Counter-ions that a name gives are not always drawn.
Measured cell viability of individual entries

compound: CN(Cc1cnc2nc(N)nc(N)c2n1)c1ccc(C(=O)N[C@@H](CCC(=O)O)C(=O)O)cc1 [Methotrexate]
test system: HL-60
cell viability, %: 104

compound: O=C(O)CC[N+](=O)[O-] [3-nitropropionic acid]
test system: HL-60
cell viability, %: 84.3

compound: CCOC(=O)c1sc(NC(=O)c2ccco2)c(SC#N)c1C [CBR-5884]
test system: HL-60
cell viability, %: 107

compound: CCN(CCO)CCCC(C)Nc1ccnc2cc(Cl)ccc12 (centres undefined) [Hydroxychloroquine sulfate]
test system: HL-60
cell viability, %: 86.1

compound: O=C([O-])CC(O)(C(=O)[O-])C(O)C(=O)[O-].[K+].[K+].[K+] (centres undefined) [Hydroxycitrate]
test system: HL-60
cell viability, %: 93.7

compound: O=c1cc(N2CCOCC2)oc2c(-c3ccccc3)cccc12
test system: HL-60
cell viability, %: 110

compound: CN(CCCOc1ccc(Cc2ccccc2)cc1)CCC(=O)O
test system: HL-60
cell viability, %: 98.7

compound: O=C(/C=C/c1ccc(O)c(O)c1)OCCc1ccccc1 [Caffeic acid phenethyl ester]
test system: HL-60
cell viability, %: 101

compound: c1cc(-c2cnn3cc(-c4ccc(OCCN5CCCCC5)cc4)cnc23)ccn1 [Dorsomorphin]
test system: HL-60
cell viability, %: 93.5
